- testedTarget: Aβ40 (UniProt P05067 672-711)
- Sequence (P05067 672-711 limits assumed): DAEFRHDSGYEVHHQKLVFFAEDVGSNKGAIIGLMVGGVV
- assayInfo: cell-based or functional assay
Square brackets hold non-standard residues; d marks the D form.
Inhibition at 1:1 (ThT assay, Aβ:cyclic peptide) listing for selected binders.
quantityName: Inhibition at 1:1 (ThT assay, Aβ:cyclic peptide)

1) cyclo([dL]L[dA]H[dS]K) (SMILES CC(C)C[C@@H]1NC(=O)[C@@H](CC(C)C)NC(=O)[C@H](CCCCN)NC(=O)[C@@H](CO)NC(=O)[C@H](Cc2c[nH]cn2)NC(=O)[C@@H](C)NC1=O) [[lLaHsK]: Cyclo-D-leucine-L-leucine-D-alanine-L-histidine-D-serine-L-lysine] | 4%
2) cyclo([dL]L[dW]H[dA]K) (SMILES CC(C)C[C@@H]1NC(=O)[C@@H](CC(C)C)NC(=O)[C@H](CCCCN)NC(=O)[C@@H](C)NC(=O)[C@H](Cc2c[nH]cn2)NC(=O)[C@@H](Cc2c[nH]c3ccccc23)NC1=O) [[lLwHaK]: Cyclo-D-leucine-L-leucine-D-tryptophan-L-histidine-D-alanine-L-lysine] | 56%
3) cyclo([dL]A[dW]H[dS]K) (SMILES CC(C)C[C@H]1NC(=O)[C@H](CCCCN)NC(=O)[C@@H](CO)NC(=O)[C@H](Cc2c[nH]cn2)NC(=O)[C@@H](Cc2c[nH]c3ccccc23)NC(=O)[C@H](C)NC1=O) [[lAwHsK]: Cyclo-D-leucine-L-alanine-D-tryptophan-L-histidine-D-serine-L-lysine] | 44%
